test.system: 5-hydroxytryptamine receptor 6 (Homo sapiens) (UniProt P50406)
Sequence (P50406 whole entry): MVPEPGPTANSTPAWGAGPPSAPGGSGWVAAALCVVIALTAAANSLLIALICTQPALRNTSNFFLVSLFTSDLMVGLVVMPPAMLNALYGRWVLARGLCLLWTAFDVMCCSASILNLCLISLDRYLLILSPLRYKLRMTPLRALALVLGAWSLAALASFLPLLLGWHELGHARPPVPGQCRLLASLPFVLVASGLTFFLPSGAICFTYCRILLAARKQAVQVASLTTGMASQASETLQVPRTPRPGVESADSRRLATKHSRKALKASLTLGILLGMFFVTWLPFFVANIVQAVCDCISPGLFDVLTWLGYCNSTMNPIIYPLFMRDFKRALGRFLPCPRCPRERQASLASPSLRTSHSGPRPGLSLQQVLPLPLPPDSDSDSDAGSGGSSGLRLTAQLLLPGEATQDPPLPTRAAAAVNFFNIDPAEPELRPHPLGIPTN
protocol.conditions: Compound concentration 10 µM; call rule not given here
Response enum: active, inactive

These solved cases illustrate the format of a correct answer.
| compound | label.value |
| --- | --- |
| CC(C)(C(=O)O)c1ccc(C(O)CCCN2CCC(C(O)(c3ccccc3)c3ccccc3)CC2)cc1 (stereo not given) | inactive |
| Cc1nc(C#Cc2ccnc(Cl)c2)c(C)n1-c1ccc(OC(F)(F)F)cc1 | inactive |
| O=c1ccn([C@@H]2O[C@H](COP(=O)(O)OP(=O)(O)O)[C@@H](O)[C@H]2O)c(=O)[nH]1 | inactive |
| COc1ccc(S(=O)(=O)c2cc(OC)ccc2S(=O)(=O)c2ccc([C@H](C)NS(C)(=O)=O)cc2)cc1 | active |
| COC1CCN(c2cccc(-c3cc(NC(C)=O)nc(-n4nc(C)cc4C)n3)n2)CC1 | inactive |

Q: # lookup: test call for `NCCc1cn(S(=O)(=O)c2c(Cl)nc3sccn23)c2ccccc12`
Ans: active

Q: What call does the record list for `CN1CC(=O)N=C1NC(=O)Nc1cccc(Cl)c1` ?
Ans: inactive

----------
test.system: UniProtKB P28223
Sequence (P28223 whole entry): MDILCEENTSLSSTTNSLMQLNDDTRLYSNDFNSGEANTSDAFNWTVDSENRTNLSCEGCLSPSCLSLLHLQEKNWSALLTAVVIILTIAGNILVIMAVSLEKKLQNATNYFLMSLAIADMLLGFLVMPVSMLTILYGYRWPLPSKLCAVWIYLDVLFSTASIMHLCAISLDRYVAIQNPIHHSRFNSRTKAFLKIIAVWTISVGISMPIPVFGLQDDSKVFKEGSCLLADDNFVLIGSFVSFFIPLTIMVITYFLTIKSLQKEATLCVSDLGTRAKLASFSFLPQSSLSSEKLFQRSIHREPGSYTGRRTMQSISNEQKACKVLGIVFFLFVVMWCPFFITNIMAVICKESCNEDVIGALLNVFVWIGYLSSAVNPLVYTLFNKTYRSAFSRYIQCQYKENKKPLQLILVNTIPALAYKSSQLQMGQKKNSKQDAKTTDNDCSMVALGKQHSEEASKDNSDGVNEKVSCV
protocol.conditions: Compound concentration 10 µM
Description: PDSP Primary Binding target: HTR2A - Compounds are tested at 10 uM concentration, plate are incubated at room temperature in the dark for 90 minutes. Reaction are stopped by vacuum filtration onto 0.3% polyethyleneimine soaked filter mats using Filtermate harvester. Scintilation cocktail is then melted onto microwave-dried filters on a hot plate and the radio activity is counted in Microbia counter.
// reported inhibition per item
Your answer should be a plain number; it is taken to be in %.

The examples below pair each entry with its known result.
| molecule | inhibition (%) |
| --- | --- |
| CCc1nn(CCCN2CCN(c3cccc(Cl)c3)CC2)c(=O)n1CCOc1ccccc1 | 82 |
| CN(C)C(=O)N[C@H]1CC[C@H](CCN2CCN(c3cccc(Cl)c3Cl)CC2)CC1 | 110 |
| O=c1ccn([C@@H]2O[C@H](COP(=O)(O)OP(=O)(O)O)[C@@H](O)[C@H]2O)c(=O)[nH]1 | 10.7 |
| N#Cc1c(O)nc(SCc2cccc(F)c2F)nc1C1CC1 | -3.85 |
| CO[C@@H]1COCC[C@@H]1N[C@@H]1CC[C@@](C(=O)N2CCc3ncc(C(F)(F)F)cc3C2)(C(C)C)C1 | 4.71 |
| CN1CCN(c2ccc(Nc3c4ccccc4nc4ccccc34)cc2)CC1 | 5.02 |
| OCc1cc(C(O)CNCCCCCCOCCCCc2ccccc2)ccc1O (centres undefined) | 78.2 |
| Cc1cccc(NC(=O)N[C@@H]2N=C(c3ccccc3)c3ccccc3N(C)C2=O)c1 | 53.4 |

Q: Name the recorded inhibition of the molecule listed here: `S=C(NCCCc1c[nH]cn1)NCCCN(Cc1ccc(Cl)c(Cl)c1)c1ccc(Br)cn1`
Ans: 85.2

Q: Identify measured inhibition associated with `CN1C(=O)[C@@H](NC(=O)c2cc3ccccc3[nH]2)N=C(c2ccccc2)c2ccccc21`
Ans: 19.7

----------
test.system: Delta-type opioid receptor (Homo sapiens)
protocol.conditions: Compound concentration 10 µM; call rule not given here
Output constraint: value belongs to active, inactive

| structure.string | label.value |
| --- | --- |
| Cc1nc(C(=O)N2CCC[C@H]2Cc2nnc(-c3ccccc3)o2)c(-c2ccccc2F)s1 | inactive |
| C=CCN1C[C@H](C)N([C@H](c2ccc(C(=O)N(CC)CC)cc2)c2cccc(O)c2)C[C@H]1C | active |
| O=c1ccc2ccc(OCCCCN3CCN(c4cccc5sccc45)CC3)cc2[nH]1 | inactive |
| COc1ccc2[nH]cc(CCNC(C)=O)c2c1 | inactive |
| Clc1cccc(COc2cncc(N3CCNCC3)n2)c1 | inactive |

Q: Which result was noted for this compound in the test: `NCCc1cn(S(=O)(=O)c2c(Cl)nc3sccn23)c2ccccc12`
Ans: inactive

Q: Hello, I am checking results. What call was entered for `CN1C[C@H](C(=O)N[C@]2(C)O[C@@]3(O)[C@@H]4CCCN4C(=O)[C@H](Cc4ccccc4)N3C2=O)C[C@@H]2c3cccc4[nH]cc(c34)C[C@H]21` ?
Ans: inactive

Q: Could you kindly confirm the outcome this assay logged for `COC(=O)[C@H]1[C@H]2C[C@H]3c4[nH]c5ccccc5c4CCN3C[C@H]2CC[C@@H]1O` ?
Ans: inactive

Q: Would you mind telling me which call this test gave `Cc1nnn(-c2ccc(-c3ccc(C4(C(=O)O)CC4)cc3)cc2)c1NC(=O)O[C@H](C)c1ccccc1` ?
Ans: inactive

----------
test.system: D(3) dopamine receptor (Homo sapiens)
protocol.conditions: Compound concentration 10 µM; call rule not given here
Permitted responses: t for active, f for inactive

| structure.string | label.value |
| --- | --- |
| CN1CCN(c2ccc(Nc3c4ccccc4nc4ccccc34)cc2)CC1 | f |
| CSc1ccc(C(=O)N[C@@H]2CCCC[C@@H]2NC(=O)CNC(=O)c2cc(C(F)(F)F)ccc2NC(=O)NC(C)C)cc1 | t |

Consider the record given below.
Q: Each compound tested received a call. Report the one for `N#Cc1c(N)nc(SCC(N)=O)c(C#N)c1-c1ccc(OCC2CC2)cc1` .
Ans: f

----------
test.system: Muscarinic acetylcholine receptor M3 (Homo sapiens) (UniProt P20309)
Sequence (P20309 whole entry, looked up): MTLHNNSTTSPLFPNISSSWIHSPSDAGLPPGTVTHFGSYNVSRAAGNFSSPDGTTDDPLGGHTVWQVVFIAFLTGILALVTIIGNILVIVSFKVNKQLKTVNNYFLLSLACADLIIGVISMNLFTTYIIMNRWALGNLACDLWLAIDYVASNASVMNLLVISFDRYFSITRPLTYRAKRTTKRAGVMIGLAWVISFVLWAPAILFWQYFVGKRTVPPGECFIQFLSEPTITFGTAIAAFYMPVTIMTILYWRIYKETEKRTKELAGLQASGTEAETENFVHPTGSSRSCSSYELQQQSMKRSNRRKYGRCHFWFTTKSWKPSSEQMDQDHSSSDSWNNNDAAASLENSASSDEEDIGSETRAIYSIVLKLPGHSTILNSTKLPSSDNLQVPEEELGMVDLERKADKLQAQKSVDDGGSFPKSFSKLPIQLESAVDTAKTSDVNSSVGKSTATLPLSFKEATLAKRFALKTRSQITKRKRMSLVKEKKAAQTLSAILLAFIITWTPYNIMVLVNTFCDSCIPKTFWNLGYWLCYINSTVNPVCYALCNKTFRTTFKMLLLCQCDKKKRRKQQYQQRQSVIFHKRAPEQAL
protocol.conditions: Compound concentration 10 µM
Description: PDSP Primary Binding target: CHRM3 - Compounds are tested at 10 uM concentration, plate are incubated at room temperature in the dark for 90 minutes. Reaction are stopped by vacuum filtration onto 0.3% polyethyleneimine soaked filter mats using Filtermate harvester. Scintilation cocktail is then melted onto microwave-dried filters on a hot plate and the radio activity is counted in Microbia counter.
experimental.readout: inhibition (%)
Your answer should be a plain number; it is taken to be in %.

Past entries and their recorded results:
| molecule | test.system | inhibition, % |
| --- | --- | --- |
| Cc1cn2cc(CC(=O)N3CCC4(CC3)CN(Cc3ccc(-n5nccn5)cc3Cl)C4)nc2s1 | Muscarinic acetylcholine receptor M3 (Homo sapiens) (UniProt P20309) | 98.2 |
| c1ccc(N2CCN(Cc3nc4ccccc4[nH]3)CC2)nc1 | Muscarinic acetylcholine receptor M3 (Homo sapiens) (UniProt P20309) | -4.76 |
| N=C(N)SCCc1c[nH]cn1 | Muscarinic acetylcholine receptor M3 (Homo sapiens) (UniProt P20309) | -9.79 |
| COc1cccc([C@@H](C)NCCCc2ccccc2Cl)c1 | Muscarinic acetylcholine receptor M3 (Homo sapiens) (UniProt P20309) | 0.89 |
| CO[C@@H]1COCC[C@@H]1N[C@@H]1CC[C@@](C(=O)N2CCc3ncc(C(F)(F)F)cc3C2)(C(C)C)C1 | Muscarinic acetylcholine receptor M3 (Homo sapiens) (UniProt P20309) | 6.08 |
| Clc1ccc(CCCOCCCN2CCCCC2)cc1 | Muscarinic acetylcholine receptor M3 (Homo sapiens) (UniProt P20309) | 44.5 |
| C[C@H](Cc1cc2c(c(C(N)=O)c1)N(CCCO)CC2)NCCOc1ccccc1OCC(F)(F)F | Muscarinic acetylcholine receptor M3 (Homo sapiens) (UniProt P20309) | -2.64 |
| Cc1nc2sccn2c(=O)c1CCN1CCC(=C(c2ccc(F)cc2)c2ccc(F)cc2)CC1 | Muscarinic acetylcholine receptor M3 (Homo sapiens) (UniProt P20309) | 6.1 |

Q: Return inhibition (reported value) for this molecule: `Oc1ccc2c3c1O[C@H]1c4[nH]c5c(c4C[C@@]4(O)[C@@H](C2)N(CC2CC2)CC[C@]314)C[C@@]1(O)[C@H]2Cc3ccc(O)c4c3[C@@]1(CCN2CC1CC1)[C@H]5O4`
Ans: 3.43

Q: Note inhibition for the molecule shown: O=C(c1cc2c(cc1F)OC(c1ccc(F)cc1)(c1ccc(Cl)cc1Cl)O2)N1CCOCC1 (stereo not drawn)
Ans: -9.02

----------
Entries annotated with measured inhibition
test.system: UniProt P08912
Sequence (P08912 whole entry): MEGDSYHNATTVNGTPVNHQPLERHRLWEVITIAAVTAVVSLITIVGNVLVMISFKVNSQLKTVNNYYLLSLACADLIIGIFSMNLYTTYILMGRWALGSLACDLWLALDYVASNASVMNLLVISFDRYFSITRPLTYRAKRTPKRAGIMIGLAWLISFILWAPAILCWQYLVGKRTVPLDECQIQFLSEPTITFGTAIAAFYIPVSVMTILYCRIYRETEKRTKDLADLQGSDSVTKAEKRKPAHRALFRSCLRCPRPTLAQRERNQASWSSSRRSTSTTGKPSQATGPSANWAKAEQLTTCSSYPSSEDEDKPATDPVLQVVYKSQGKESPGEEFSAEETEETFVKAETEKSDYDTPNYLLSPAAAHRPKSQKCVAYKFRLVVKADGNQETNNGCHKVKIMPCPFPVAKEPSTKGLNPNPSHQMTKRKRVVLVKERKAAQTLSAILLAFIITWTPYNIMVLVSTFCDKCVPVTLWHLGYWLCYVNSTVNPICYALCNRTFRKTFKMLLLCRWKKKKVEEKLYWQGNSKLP
protocol.conditions: Compound concentration 10 µM
Description: PDSP Primary Binding target: CHRM5 - Compounds are tested at 10 uM concentration, plate are incubated at room temperature in the dark for 90 minutes. Reaction are stopped by vacuum filtration onto 0.3% polyethyleneimine soaked filter mats using Filtermate harvester. Scintilation cocktail is then melted onto microwave-dried filters on a hot plate and the radio activity is counted in Microbia counter.
Number in %, nothing else.

Worked examples, 6 molecules total:
| molecule | inhibition, % |
| --- | --- |
| O=C1O[C@]2(CC[C@H](C(=O)Nc3ccn(-c4ccccc4F)n3)CC2)c2cnccc21 | -6.98 |
| Cc1cc(C(=O)N2Cc3cnn(C)c3Nc3ccccc32)ccc1CNC(=O)N1CCC[C@H]1C(=S)N1CCCN(C)CC1 | 83.3 |
| CC1CCN(CC[C@H]2CCCN2S(=O)(=O)c2cccc(O)c2)CC1 | 1.99 |
| O=C(Nc1ccc(Cl)cc1)Nc1cccc(-c2cccc(N3CCCC3)n2)c1 | -5.29 |
| CN[C@@H]1CCc2[nH]c3ccc(C(N)=O)cc3c2C1 | -1.58 |
| O=c1ccn([C@@H]2O[C@H](COP(=O)(O)OP(=O)(O)OP(=O)(O)O)[C@@H](O)[C@H]2O)c(=O)[nH]1 | 7.7 |

Q: # return inhibition for `Clc1ccc(CCCOCCCN2CCCCC2)cc1` , test system: UniProt P08912
Ans: 23.1

Q: Report inhibition under test system UniProt P08912 for `CCCCCCCCCCCCC/C=C/[C@@H](O)[C@@H](N)COP(=O)(O)O` .
Ans: 6.31

Q: Answer with inhibition of `CCCSc1nc(N[C@@H]2C[C@H]2c2ccc(F)c(F)c2)c2nnn([C@@H]3C[C@H](OCCO)[C@@H](O)[C@H]3O)c2n1` measured for UniProt P08912.
Ans: 10.8

Q: Consider the molecule CC(C)NCC(O)COc1ccc(CCOCC2CC2)cc1 (stereo not given) tested on UniProt P08912; state its inhibition.
Ans: 0.46
